test_method_notes: Cmax after oral administration at 20 mpk in rats
Assay type: ADME, organism-based
Parameters: dose 20 mpk, route oral
assay_setup: rat, in vivo, 20 mg/kg
Documented Cmax across a set of compounds

{"columns": ["compound", "reported_value"],
 "data": [
  ["O=C(NO)c1c(Cl)cccc1S(=O)(=O)N1CCC(Oc2ccc(C(F)(F)F)cc2)CC1", "1310 ng/mL"]
]}

Exercise: Request the reported Cmax associated with O=C(NO)C1(CS(=O)(=O)c2ccc(Oc3ccc(Cl)cc3)cc2)CCOCC1
Solution: 1370 ng/mL

Exercise: Request the reported Cmax associated with O=C(NO)c1c(S(=O)(=O)N2CCC(Oc3ccc(C(F)(F)F)cc3)CC2)ccc2c1OCCO2
Solution: 3200 ng/mL

Exercise: Request the reported Cmax associated with COCCOc1cccc(S(=O)(=O)N2CCC(Oc3ccc(C(F)(F)F)cc3)CC2)c1C(=O)NO
Solution: 2670 ng/mL

Exercise: Request the reported Cmax associated with O=C(NO)c1ccccc1S(=O)(=O)N1CCC(Oc2ccc(OC(F)(F)F)cc2)CC1
Solution: 670 ng/mL

Exercise: Request the reported Cmax associated with CC1(C)SCCN(S(=O)(=O)c2ccc(Oc3ccncc3)cc2)[C@H]1C(=O)NO
Solution: 2060 ng/mL

Exercise: Request the reported Cmax associated with COc1ccc(S(=O)(=O)N2CCC(Oc3ccc(C(F)(F)F)cc3)CC2)c(C(=O)NO)c1OC
Solution: 22500 ng/mL

Exercise: Request the reported Cmax associated with CNC(=O)[C@@H](NC(=O)C(CC(C)C)C(O)C(=O)NO)C(C)(C)C (single isomer, unassigned)
Solution: 2400 ng/mL

Exercise: Request the reported Cmax associated with O=C(NO)c1ccccc1S(=O)(=O)N1CCC(Oc2ccc(C(F)(F)F)cc2)CC1
Solution: 1230 ng/mL

----------
target_under_test: Interstitial collagenase (Homo sapiens)
test_method_notes: Inhibitory activity against human Matrix metalloprotease-1
observable: Activity

{"columns": ["compound", "reported_value"],
 "data": [
  ["COc1ccc(S(=O)(=O)N2CCC(Oc3ccc(Cl)cc3)CC2)c(C(=O)NO)c1OC", "> 10 µM"],
  ["COc1ccc(OC2CCN(S(=O)(=O)c3ccc(OC)c(OC)c3C(=O)NO)CC2)cc1", "> 10 µM"],
  ["COc1ccc(S(=O)(=O)N2CCC(OCc3ccc4c(c3)OCO4)CC2)c(C(=O)NO)c1OC", "> 10 µM"],
  ["O=C(NO)c1c(F)cccc1S(=O)(=O)N1CCC(Oc2ccc(C(F)(F)F)cc2)CC1", "> 10 µM"],
  ["O=C(NO)c1c(Cl)cccc1S(=O)(=O)N1CCC(Oc2ccc(C(F)(F)F)cc2)CC1", "> 10 µM"],
  ["O=C(NO)c1c(S(=O)(=O)N2CCC(Oc3ccc(C(F)(F)F)cc3)CC2)ccc2c1OCCO2", "> 10 µM"],
  ["COc1ccc(S(=O)(=O)N2CCC(Oc3ccc(OC(F)(F)F)cc3)CC2)c(C(=O)NO)c1OC", "> 10 µM"],
  ["COc1ccc(S(=O)(=O)N2CCC(Oc3ccc(C(F)(F)F)cc3)CC2)c(C(=O)NO)c1OC", "> 10 µM"]
]}

Alright, here's another compound for you.
Exercise: Request the reported Activity associated with COc1ccccc1OC1CCN(S(=O)(=O)c2ccc(OC)c(OC)c2C(=O)NO)CC1
Solution: > 10 µM
